All figures here come from patent US20120189639A1.

Target: T1, hGITR-hIgG (human, UniProt Q9Y5U5 26-161, limits assumed)
T1 construct: not shown: human IgG part of the fusion
T1 sequence: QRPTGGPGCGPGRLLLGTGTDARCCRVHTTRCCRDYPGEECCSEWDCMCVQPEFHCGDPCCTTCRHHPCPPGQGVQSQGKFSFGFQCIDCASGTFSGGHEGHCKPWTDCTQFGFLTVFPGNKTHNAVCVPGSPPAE
Assay: BIAcore SPR; hGITR-hIgG capture antigen, mAb analyte

| BINDER | koff / s⁻¹ |
| --- | --- |
| 3D6 (antibody, V domains shown, Parental rodent anti-human GITR monoclonal antibody from a hybridoma; kappa VL; also called JL5.3D6; hybridoma PTA-9889) VH: EVQLVESGGGLVQPGRSLKLSCAASGFTFSDYYMAWVRQAPTKGLEWVAYIHANGGSTYYRDSVRGRFSISRDNGKSTLYLQMDSLRSEDTATYYCTTGSFMYAADYYIMDAWGQGASVTVSS VL: DVVMTQTPVSLSVSLGNQASISCRSSQSLLHSDGNTFLSWYFQKPGQSPQLLIYLASNRFSGVSNRFSGSGSGTDFTLKISRVEPEDLGVYYCFQHTHLPLTFGSGTKLEIKR | 0.000766 |
| 31H6 (antibody, V domains shown, Parental rodent anti-human GITR monoclonal antibody from a hybridoma; kappa VL; also called 31H6.B7) VH: QVTLKESGPGILQPSQTLSLTCTFSGFSLSTYGVGVGWIRQPSGKGLEWLANIWWDDDKYYNPSLKNRLTISKDTSNNQAFLKITNVDTAETATYYCAQIKEPRDWFFEFWGPGTMVSVSS VL: DIQMTQTPSSMPASLGERVTIFCRASQGVNNYLTWYQQKPDGTIKPLIFYTSNLQSGVPSRFSGSGSGTDYSLSISSLEPEDFAMYYCQQYHGFPNTFGAGTKLELKR | 7e-06 |
| 49A1 (antibody, V domains shown, Parental rodent anti-human GITR monoclonal antibody from a hybridoma; kappa VL; also called 49A1.B1) VH: EVQLQESGPSLVKPSQTLSLTCSVTGDSITSGYWNWIRKFPGNKFEYMGFISYSGNTYYNPSLRSRISITRDTSKNQYFLHLNSVTTEDTATYYCSRRHLISGYGWFAYWGQGTLVTVSA VL: VIVMTQSHKFMSTSIGDRVNITCKASQDVISAVAWYQQKPGQSPKLLIYWASTRHTGVPDRFTGSGSGTDFTLTINSVQAEDRALYYCQQHSYTPPWTFGGGTNLEIKR | 0.000318 |
| 9E5 (antibody, V domains shown, Parental rodent anti-human GITR monoclonal antibody from a hybridoma; kappa VL; also called 9E5.C1) VH: QVTLKESGPGILQPSQTLSLTCTFSGFSLSTYGVGVGWIRQPSGKGLEWLANIWWDDDNYYNPSLIHRLTVSKDTSNNQAFLKITNVDTAETATYYCAQIKEPRDWFFEFWGPGTMVSVSS VL: DIQMTQTPSSMPASLGERVTIFCRASQGVNNFLTWYQQKPDGTIKPLIFYTSNLQSGVPSRFSGSGSGTDYSLSISSLEPEDFAMYYCQQYHGFPNTFGAGTKLELKR | 2.7e-05 |
